Data origin: patent US6140368A

target: HIV integrase (Human immunodeficiency virus type 1 group M subtype B, UniProt P04585); assay: biochemical; conditions: read-out: Inhibition of strand transfer (IC50)
pIC50: −log10 of the molar value.
Assay Endpoint: pIC50

{"Compound": "Cc1cc2nc(N=Nc3c(S(=O)(=O)O)cc4cc(NC(=O)C(=O)Nc5ccc6c(O)c(N=Nc7nc8cc(C)c(C)cc8[nH]7)c(S(=O)(=O)O)cc6c5)ccc4c3O)[nH]c2cc1C", "Assay Endpoint": "pIC50", "Qualifier Operator": "=", "Numeric Value": 6.52}
{"Compound": "Cc1ccc(CO)cc1N=Nc1c(S(=O)(=O)O)cc2cc(NC(=O)Nc3ccc4c(O)c(N=Nc5cc(CO)ccc5C)c(S(=O)(=O)O)cc4c3)ccc2c1O", "Assay Endpoint": "pIC50", "Qualifier Operator": "<", "Numeric Value": 5.52}
{"Compound": "O=C(Nc1ccc2c(O)c(N=Nc3ccc(I)cc3)c(S(=O)(=O)O)cc2c1)Nc1ccc2c(O)c(N=Nc3ccc(I)cc3)c(S(=O)(=O)O)cc2c1", "Assay Endpoint": "pIC50", "Qualifier Operator": "=", "Numeric Value": 6.00}
{"Compound": "COc1cc(C(=O)O)c(N=Nc2c(S(=O)(=O)O)cc3cc(NC(=O)C(=O)Nc4ccc5c(O)c(N=Nc6c(C(=O)O)cc(OC)c(OC)c6OC)c(S(=O)(=O)O)cc5c4)ccc3c2O)c(OC)c1OC", "Assay Endpoint": "pIC50", "Qualifier Operator": "=", "Numeric Value": 6.15}
{"Compound": "O=C(Nc1ccc2c(O)c(N=Nc3ncn[nH]3)c(S(=O)(=O)O)cc2c1)Nc1ccc2c(O)c(N=Nc3ncn[nH]3)c(S(=O)(=O)O)cc2c1", "Assay Endpoint": "pIC50", "Qualifier Operator": "=", "Numeric Value": 6.30}
{"Compound": "COc1cc(N=Nc2c(S(=O)(=O)O)cc3cc(NC(=O)Nc4ccc5c(O)c(N=Nc6cc(OC)c(OC)cc6C(=O)O)c(S(=O)(=O)O)cc5c4)ccc3c2O)c(C(=O)O)cc1OC", "Assay Endpoint": "pIC50", "Qualifier Operator": "=", "Numeric Value": 5.70}
{"Compound": "O=C(Nc1ccc2c(O)c(N=Nc3ccc(CP(=O)(O)O)cc3)c(S(=O)(=O)O)cc2c1)Nc1ccc2c(O)c(N=Nc3ccc(CP(=O)(O)O)cc3)c(S(=O)(=O)O)cc2c1", "Assay Endpoint": "pIC50", "Qualifier Operator": "<", "Numeric Value": 5.52}
{"Compound": "O=C(Nc1ccc2c(O)c(N=Nc3c(Cl)cc(C(=O)O)cc3Cl)c(S(=O)(=O)O)cc2c1)Nc1ccc2c(O)c(N=Nc3c(Cl)cc(C(=O)O)cc3Cl)c(S(=O)(=O)O)cc2c1", "Assay Endpoint": "pIC50", "Qualifier Operator": "=", "Numeric Value": 6.30}
{"Compound": "O=C(O)CCc1ccc(N=Nc2c(S(=O)(=O)O)cc3cc(NC(=O)Nc4ccc5c(O)c(N=Nc6ccc(CCC(=O)O)cc6)c(S(=O)(=O)O)cc5c4)ccc3c2O)cc1", "Assay Endpoint": "pIC50", "Qualifier Operator": "=", "Numeric Value": 6.40}
{"Compound": "COC(=O)/C=C/c1ccc(N=Nc2c(S(=O)(=O)O)cc3cc(NC(=O)Nc4ccc5c(O)c(N=Nc6ccc(/C=C/C(=O)OC)cc6)c(S(=O)(=O)O)cc5c4)ccc3c2O)cc1", "Assay Endpoint": "pIC50", "Qualifier Operator": "<", "Numeric Value": 5.52}
{"Compound": "CCOC(=O)c1ccccc1N=Nc1c(S(=O)(=O)O)cc2cc(NC(=O)Nc3ccc4c(O)c(N=Nc5ccccc5C(=O)OCC)c(S(=O)(=O)O)cc4c3)ccc2c1O", "Assay Endpoint": "pIC50", "Qualifier Operator": "<", "Numeric Value": 5.52}
{"Compound": "O=C(Nc1ccc2c(O)c(N=Nc3ccc(C(=O)O)cc3)c(S(=O)(=O)O)cc2c1)Nc1ccc2c(O)c(N=Nc3ccc(C(=O)O)cc3)c(S(=O)(=O)O)cc2c1 [Compound 67]", "Assay Endpoint": "pIC50", "Qualifier Operator": "=", "Numeric Value": 6.60}
{"Compound": "C=Cc1ccc(N=Nc2c(S(=O)(=O)O)cc3cc(NC(=O)Nc4ccc5c(O)c(N=Nc6ccc(C=C)cc6)c(S(=O)(=O)O)cc5c4)ccc3c2O)cc1", "Assay Endpoint": "pIC50", "Qualifier Operator": "=", "Numeric Value": 5.82}
{"Compound": "COc1ccc(N=Nc2c(S(=O)(=O)O)cc3cc(NC(=O)Nc4ccc5c(O)c(N=Nc6ccc(OC)c(OC)c6)c(S(=O)(=O)O)cc5c4)ccc3c2O)cc1OC", "Assay Endpoint": "pIC50", "Qualifier Operator": "=", "Numeric Value": 5.52}
{"Compound": "O=C(Nc1ccc2c(O)c(N=Nc3ccccc3)c(S(=O)(=O)O)cc2c1)Nc1ccc2c(O)c(N=Nc3ccccc3)c(S(=O)(=O)O)cc2c1 [Compound 4, calcomine orange, reference compound]", "Assay Endpoint": "pIC50", "Qualifier Operator": "=", "Numeric Value": 5.70}
{"Compound": "O=C(Nc1ccc2c(O)c(N=Nc3ccc(Cl)cc3)c(S(=O)(=O)O)cc2c1)Nc1ccc2c(O)c(N=Nc3ccc(Cl)cc3)c(S(=O)(=O)O)cc2c1", "Assay Endpoint": "pIC50", "Qualifier Operator": "<", "Numeric Value": 5.52}
{"Compound": "COC(=O)c1ccc(N=Nc2c(S(=O)(=O)O)cc3cc(NC(=O)Nc4ccc5c(O)c(N=Nc6ccc(C(=O)OC)cc6I)c(S(=O)(=O)O)cc5c4)ccc3c2O)c(I)c1", "Assay Endpoint": "pIC50", "Qualifier Operator": "<", "Numeric Value": 5.52}
{"Compound": "O=C(Nc1ccc2c(O)c(N=Nc3ccc(Br)cc3Br)c(S(=O)(=O)O)cc2c1)Nc1ccc2c(O)c(N=Nc3ccc(Br)cc3Br)c(S(=O)(=O)O)cc2c1", "Assay Endpoint": "pIC50", "Qualifier Operator": "<", "Numeric Value": 4.70}
{"Compound": "O=C(Nc1ccc2c(O)cc(S(=O)(=O)O)cc2c1)Nc1ccc2c(O)cc(S(=O)(=O)O)cc2c1", "Assay Endpoint": "pIC50", "Qualifier Operator": "=", "Numeric Value": 5.60}
{"Compound": "O=C(Nc1ccc2c(O)c(N=Nc3ccccc3)c(S(=O)(=O)O)cc2c1)Nc1ccc2c(O)c(N=Nc3ccccc3)c(S(=O)(=O)O)cc2c1 [Compound 62]", "Assay Endpoint": "pIC50", "Qualifier Operator": "=", "Numeric Value": 6.30}
{"Compound": "COc1ccc(N=Nc2c(S(=O)(=O)O)cc3cc(NC(=O)Nc4ccc5c(O)c(N=Nc6ccc(OC)cc6)c(S(=O)(=O)O)cc5c4)ccc3c2O)cc1", "Assay Endpoint": "pIC50", "Qualifier Operator": "=", "Numeric Value": 6.22}

====

IC50 listing for selected compounds.
target: HIV integrase (Human immunodeficiency virus type 1 group M subtype B); experiment: biochemical; settings: read-out: Inhibition of strand transfer (IC50)

{"Mol Smiles": "O=C(O)CCCc1ccc(N=Nc2c(S(=O)(=O)O)cc3cc(NC(=O)C(=O)Nc4ccc5c(O)c(N=Nc6ccc(CCCC(=O)O)cc6)c(S(=O)(=O)O)cc5c4)ccc3c2O)cc1", "IC50 [nM]": 700}
{"Mol Smiles": "O=C(Nc1ccc2c(O)c(N=Nc3cc(C(=O)O)ccc3C(=O)O)c(S(=O)(=O)O)cc2c1)Nc1ccc2c(O)c(N=Nc3cc(C(=O)O)ccc3C(=O)O)c(S(=O)(=O)O)cc2c1", "IC50 [nM]": 2000}
{"Mol Smiles": "O=C(Nc1ccc2c(O)c(N=Nc3cc(C(=O)O)cc(C(=O)O)c3)c(S(=O)(=O)O)cc2c1)Nc1ccc2c(O)c(N=Nc3cc(C(=O)O)cc(C(=O)O)c3)c(S(=O)(=O)O)cc2c1", "IC50 [nM]": 900}
{"Mol Smiles": "O=C(Nc1ccc2c(O)c(N=Nc3cccc4c(=O)[nH][nH]c(=O)c34)c(S(=O)(=O)O)cc2c1)Nc1ccc2c(O)c(N=Nc3cccc4c(=O)[nH][nH]c(=O)c34)c(S(=O)(=O)O)cc2c1", "IC50 [nM]": 1000}
{"Mol Smiles": "Cc1cc(C(=O)O)ccc1N=Nc1c(S(=O)(=O)O)cc2cc(NC(=O)Nc3ccc4c(O)c(N=Nc5ccc(C(=O)O)cc5C)c(S(=O)(=O)O)cc4c3)ccc2c1O", "IC50 [nM]": 2000}
{"Mol Smiles": "COc1cc(C(=O)O)ccc1N=Nc1c(S(=O)(=O)O)cc2cc(NC(=O)C(=O)Nc3ccc4c(O)c(N=Nc5ccc(C(=O)O)cc5OC)c(S(=O)(=O)O)cc4c3)ccc2c1O", "IC50 [nM]": 300}
{"Mol Smiles": "O=C(O)CCc1ccc(N=Nc2c(S(=O)(=O)O)cc3cc(NC(=O)C(=O)Nc4ccc5c(O)c(N=Nc6ccc(CCC(=O)O)cc6)c(S(=O)(=O)O)cc5c4)ccc3c2O)cc1", "IC50 [nM]": 400}
{"Mol Smiles": "COc1cc(N=Nc2c(S(=O)(=O)O)cc3cc(NC(=O)C(=O)Nc4ccc5c(O)c(N=Nc6cc(OC)c(C(=O)O)cc6Cl)c(S(=O)(=O)O)cc5c4)ccc3c2O)c(Cl)cc1C(=O)O", "IC50 [nM]": 700}
{"Mol Smiles": "O=C(O)/C=C/c1ccc(N=Nc2c(S(=O)(=O)O)cc3cc(NC(=O)Nc4ccc5c(O)c(N=Nc6ccc(/C=C/C(=O)O)cc6)c(S(=O)(=O)O)cc5c4)ccc3c2O)cc1", "IC50 [nM]": 1000}
{"Mol Smiles": "CC(=O)Nc1ccc(N=Nc2c(S(=O)(=O)O)cc3cc(NC(=O)C(=O)Nc4ccc5c(O)c(N=Nc6ccc(NC(C)=O)cc6)c(S(=O)(=O)O)cc5c4)ccc3c2O)cc1", "IC50 [nM]": 700}
